Test system: NCI-H460 lung
Assay: NCI tumour cell line growth inhibition, 48 h
Quick list: TGI per entry.

In the examples that follow, each entry is paired with its recorded TGI.
* O=C1c2ccccc2-c2c1c1ccccc1c(=O)n2CCNCCNCCNCCn1c2c(c3ccccc3c1=O)C(=O)c1ccccc1-2 | > 100 µM
* Cc1ccc(NC(=O)Nc2ccc(-c3cccnc3)cc2N2CCC(CO)CC2)cc1 | > 100 µM
* NC(N)=N/N=C/c1c(-c2ccc(N)cc2)nc2sccn12 | 76.8 µM

TGI lookup needed for COc1ccc2cc(NC(=O)N/N=C\c3ccc([N+](=O)[O-])cc3)ccc2c1 , thanks.
> 100 µM

And what about the compound CC(C)=CCc1c2c(c3occ(-c4ccc(O)cc4)c(=O)c3c1O)CC(C(C)(C)O)O2 (stereo unspecified) ?
26 µM

And what about the compound Cc1ccc(S(=O)(=O)OC[C@@H]2CO2)cc1 ?
> 100 µM

And what about the compound COc1ccc2c(c1)/C(=C/CCN(C)C)c1ccccc1S2 ?
> 100 µM

And what about the compound c1csc(-c2ccc(-c3cccc4nsnc34)s2)c1 ?
> 100 µM

====

Tested on: 786-0 renal
Assay: NCI tumour cell line growth inhibition, 48 h
outcome measure: GI50

• C=CC(=O)Nc1cc(Nc2ncc(C(=O)OC(C)C)c(-c3cn(C)c4ccccc34)n2)c(OC)cc1N(C)CCN(C)C = 3.15 µM

Let us move to another entry and its GI50.
Under 786-0 renal: GI50 value of CCOC1Oc2ccccc2C(=O)/C1=C/Nc1ccc(C(C)=O)cc1 (stereo not given) ?
6.56 µM

====

Tested on: LOX IMVI melanoma
Assay: NCI tumour cell line growth inhibition, 48 h; in the data active = GI50 below about 0.43 µM; inactive = the rest
Allowed answers: active, inactive

Below are worked cases with known answers.
• O=C(Nc1ccc(-n2ccc3c(NC(=O)c4ccccc4)nccc32)cc1)c1ccc(Cl)c(C(F)(F)F)c1 = active
• NS(=O)(=O)OC[C@@H]1C[C@@H](n2ccc3c(NC4CCc5ccccc54)ncnc32)C[C@@H]1O (stereo partly drawn) = active
• CC(=O)[CH-]C(=O)c1ccccc1.CC(=O)[CH-]C(=O)c1ccccc1.CN(C)c1ccc([O-])cc1.CN(C)c1ccc([O-])cc1.Cl.[Ti+4] = inactive
• Cc1cc(-c2nc(C(=O)Nc3cc4oc(N5CCOCC5)nc4nc3N3CC[C@@H](O)C3)co2)ccn1 = inactive

Name the outcome recorded for O=C1c2ccccc2-c2c1c1ccccc1c(=O)n2CCNCCNCCNCCn1c2c(c3ccccc3c1=O)C(=O)c1ccccc1-2 in the assay.
active

And what about the molecule COC([CH2][Hg][n]1cnc2c1c(=O)n(C)c(=O)n2C)CN1C(=O)c2ccccc2S1(=O)=O (stereo not drawn) ?
inactive

And what about the molecule Cc1nc2sccn2c1-c1csc(Nc2ccccc2Cl)n1 ?
inactive

And what about the molecule Cc1ccc(CN2CCC(C(=O)Nc3ccc(-c4cc5ccccc5[nH]4)cc3)CC2)o1 ?
inactive

====

Test system: NCI-H460 lung
Assay: NCI tumour cell line growth inhibition, 48 h
outcome measure: TGI

In the examples that follow, each entry is paired with its recorded TGI.
• COc1cc2nc3n(c(=O)c2cc1OC)-c1ccc([N+](=O)[O-])cc1C3=O = > 100 µM
• COc1ccc(-c2cc(O)c3nc4ccccc4n3c2)cc1 = > 100 µM
• C1=C2/CC[C@H](Sc3ccccc3)C2C2(CCCCC/1)OCCO2 (stereo partly specified) = 73.9 µM
• CCOC(=O)/C=C/CC(C)(C)CCOC(C)=O = > 10 µM
• Cc1ccc(Cl)c2[nH]c(-c3ccccc3)cc(=O)c12 = > 100 µM

Let us move to another entry and its TGI.
TGI lookup needed for Cc1ccc([N+](=O)[O-])cc1NC1=NCCO1 , thanks.
> 100 µM
